system: UniProt:P11309
measurement description: Promega Kinase-Glo Pim-1 kinase inhibition assay
Type: biochemical
conditions used: Table X; Kinase-Glo; read-out: IC50 on Pim1
Recorded IC50, one value per entry.

Below: 5 compounds and their reported IC50.
>>> print(df.to_string())
                                   compound  reported_measurement
0  CC(C)(O)[C@H]1CC[C@H](Nc2ccn3ncc(-c4cccc(Cl)c4)c3n2)CC1 [Compound 8-63]          10 to 100 nM
1  Clc1cccc(-c2cnn3ccc(NC4CCOCC4)nc23)c1 [Compound 8-65]        100 to 1000 nM
2  CO[C@H]1CC[C@H](Nc2ccn3ncc(-c4cccc(OC(F)(F)F)c4)c3n2)CC1 [Compound 8-49]        100 to 1000 nM
3  O=S1(=O)CCN(c2ccn3ncc(-c4cccc(C(F)(F)F)c4)c3n2)CC1 [Compound 8-60]       1000 to 5000 nM
4  CC(C)(O)[C@H]1CC[C@H](Nc2ccc3ncc(-c4cccc(C(F)(F)F)c4)n3n2)CC1 [Compound 8-31]               < 10 nM

The observed IC50 for CC(C)(O)CCNc1ccc2ncc(-c3cccc(OC(F)(F)F)c3)n2n1 [Compound 8-3] when tested with UniProt:P11309 stands at 10 to 100 nM

Query CN1CCC(CNc2ccn3ncc(-c4cccc(OC(F)(F)F)c4)c3n2)CC1 [Compound 8-67] on UniProt:P11309; IC50 returned: 10 to 100 nM

Summary: O=S1(=O)CCC(CNc2ccc3ncc(-c4cccc(Cl)c4)n3n2)CC1 [Compound 8-40] , UniProt:P11309, IC50 = 100 to 1000 nM

Considering O[C@H]1C[C@H](CNc2ccc3ncc(-c4cccc(OC(F)(F)F)c4)n3n2)C1 [Compound 8-7] , its IC50 with UniProt:P11309 was recorded as 10 to 100 nM

Entry O=S1(=O)CCC(CNc2ccn3ncc(-c4cccc(C(F)(F)F)c4)c3n2)CC1 [Compound 8-59] , UniProt:P11309 data, IC50 value: 100 to 1000 nM

====

Tested on: PC-3 Cells
measurement description: Cell growth inhibition, Cell-Titer-Glo, 96 hours
Format: cell-based
conditions used: Table IX (results), read-out: IC50 (PC-3)
outcome measure: pIC50
When answering, recall that pIC50 equals minus log10 of the concentration in mol/L, and write that number alone.

Record "CN(C)c1cccc(-c2cnc3ccc(NCCCCO)nn23)c1" ; system PC-3 Cells; pIC50 = 4.26

====

System: K562 Cells
measurement description: Cell growth inhibition, Cell-Titer-Glo, 96 hours
Assay type: cell-based
conditions used: Homo sapiens, K562, Table IX (results), read-out: IC50 (K562)
Measured IC50 of individual entries

In [3]: df
Out[3]:
                                   compound  reported_measurement
0  Cc1cc2ncc(-c3cccc(OC(F)(F)F)c3)n2nc1NCC1CCN(C)CC1 [Compound 7-37]               3.89 µM
1  CCC(CO)Nc1ccc2ncc(-c3ccc(N(C)C)cc3)n2n1 (stereo not drawn) [Compound 7-1]               67.1 µM
2  CCN1CCC(CNc2nn3c(-c4cccc(OC(F)(F)F)c4)cnc3cc2C)CC1 [Compound 7-38]               1.41 µM
3  CN1CCC(CNc2ccc3ncc(-c4cc(OC(F)(F)F)ccc4O)n3n2)CC1 [Compound 7-43]                4.9 µM
4  CN1CCC(CCNc2ccc3ncc(-c4cc(OC(F)(F)F)ccc4O)n3n2)CC1 [Compound 7-45]               14.9 µM

Query compound follows.
Entry under test: Cc1cc2ncc(-c3cccc(OC(F)(F)F)c3)n2nc1OCC1CCN(C)CC1 [Compound 7-34] . Its IC50 was 1.73 µM

====

Test system: K562 Cells
measurement description: Cell growth inhibition, Cell-Titer-Glo, 96 hours
Assay type: cell-based
conditions used: Homo sapiens, K562, read-out: IC50 K562 Cells (inhibit cell growth to 50% of untreated), Table VI
outcome measure: pIC50
Units for pIC50: none; it is -log10 of a concentration expressed in mol/L.

Below: 3 compounds and their reported pIC50.
>>> df
                                   compound  outcome_measure  reported_measurement
0  CCC(CO)Nc1ccc2ncc(-c3ccc(NS(C)(=O)=O)cc3)n2n1 (centres unmarked) [Compound 1-3]            pIC50                  4.10
1  CCC(CO)Nc1ccc2ncc(-c3ccc(N(C)C)cc3)n2n1 (centres unmarked) [Compound 7-1]            pIC50                  4.17
2  Cc1ccc(S(=O)(=O)Nc2ccc(Nc3ccn4ncc(-c5cccc(N(C)C)c5)c4n3)cc2)cc1 [Compound 3-13]            pIC50                  4.53

From here, focus on the item given below.
Record summary for Cc1ccc(S(=O)(=O)Nc2ccc(Nc3ccn4ncc(-c5cccc(N)c5)c4n3)cc2)cc1 [Compound 3-9] : reported pIC50 = 4.69

====

Test system: K562 Cells
measurement description: Cell growth inhibition, Cell-Titer-Glo, 96 hours;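 further: luminescent ATP signal as an index of viable cell number, drug-treated versus cells given an equal volume of DMSO vehicle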
Assay type: cell-based
conditions used: Homo sapiens, K562, Table IX (results), read-out: IC50 (K562)
Measured IC50 by item

These solved cases illustrate the format of a correct answer.
>>> print(df.to_string())
                                   molecule  reported_measurement
0  CC[C@@H](N)COc1ccc2ncc(-c3cccc(OC(F)(F)F)c3)n2n1 [Compound 7-18]               5.82 µM
1  CC[C@H](N)COc1ccc2ncc(-c3cccc(OC(F)(F)F)c3)n2n1 [Compound 7-19]               5.84 µM

IC50 in this record for CN1CCC(COc2ccc3ncc(-c4cccc(OC(F)(F)F)c4)n3n2)CC1 [Compound 7-33] : 5.99 µM

====

Measured IC50 of individual entries
system: Pim-1 kinase (Homo sapiens)
measurement description: Promega Kinase-Glo Pim-1 kinase inhibition assay
Type: biochemical
conditions used: Table X; Kinase-Glo; read-out: IC50 on Pim1

                                   molecule  reported_measurement
0  CC(C)(O)[C@H]1CC[C@H](Nc2ccc3ncc(-c4cccc(Cl)c4)n3n2)CC1               < 10 nM
1  NCC1CCN(c2ccc3ncc(-c4cccc(OC(F)(F)F)c4)n3n2)C(=O)C1 (stereo not drawn)          10 to 100 nM

Sample "O=S1(=O)CCC(CNc2ccc3ncc(-c4cccc(C(F)(F)F)c4)n3n2)CC1" ; IC50 observed: 100 to 1000 nM

The reported IC50 of the molecule "CO[C@H]1CC[C@H](Nc2ccc3ncc(-c4cccc(C(F)(F)F)c4)n3n2)CC1" was 100 to 1000 nM

// "CC(C)(O)CNc1ccc2ncc(-c3cccc(OC(F)(F)F)c3)n2n1" : IC50 value = 10 to 100 nM

Measured IC50 of "C[C@]1(O)CC[C@H](Nc2ccc3ncc(-c4cccc(C(F)(F)F)c4)n3n2)CC1" : 10 to 100 nM

Per the record, "FC(F)(F)c1cccc(-c2cnn3ccc(NC4CCOCC4)nc23)c1" has IC50 of 100 to 1000 nM

Sure, the documented IC50 for "CC(C)(O)[C@H]1CC[C@H](Nc2ccn3ncc(-c4cccc(C(F)(F)F)c4)c3n2)CC1" is 10 to 100 nM

The molecule listed as "CO[C@H]1CC[C@H](Nc2ccc3ncc(-c4cccc(Cl)c4)n3n2)CC1" has a reported IC50 of 10 to 100 nM

The recorded IC50 for entry "CO[C@H]1CC[C@H](Nc2ccn3ncc(-c4cccc(Cl)c4)c3n2)CC1" equals 10 to 100 nM

====

Tested on: PC-3 Cells
measurement description: Cell growth inhibition, Cell-Titer-Glo, 96 hours;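 further: luciferase luminescence reflecting cellular ATP, used as a proxy for cell number, with compound-treated cells compared against DMSO vehicle control wells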
Format: cell-based
conditions used: Homo sapiens, Table IX (results), read-out: IC50 (PC-3)
outcome measure: IC50

The cases that follow already have their IC50 on record.
>>> print(df.to_string())
                            compound_smiles  reported_measurement
0  FC(F)(F)Oc1cccc(-c2cnc3ccc(NCCN4CCCC4)nn23)c1               9.26 µM
1  Cc1cc2ncc(-c3cccc(OC(F)(F)F)c3)n2nc1OCC1CCN(C)CC1               7.21 µM

For the next question, use this compound.
Notebook: "CC(C)N1CCC(CNc2ccc3ncc(-c4cccc(OC(F)(F)F)c4)n3n2)CC1" , IC50 read as 12.8 µM

====

system: Pim-1 kinase (Homo sapiens, UniProt P11309)
Sequence (P11309 whole entry): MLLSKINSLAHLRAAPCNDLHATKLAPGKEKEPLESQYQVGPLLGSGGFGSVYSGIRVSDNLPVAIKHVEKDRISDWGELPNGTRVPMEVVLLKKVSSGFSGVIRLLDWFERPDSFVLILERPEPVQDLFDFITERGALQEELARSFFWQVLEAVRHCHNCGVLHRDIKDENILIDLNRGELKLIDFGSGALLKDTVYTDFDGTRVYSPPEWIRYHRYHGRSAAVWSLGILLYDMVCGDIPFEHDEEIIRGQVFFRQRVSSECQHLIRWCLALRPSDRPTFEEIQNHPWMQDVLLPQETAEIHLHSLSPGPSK
measurement description: Promega Kinase-Glo Pim-1 kinase inhibition assay;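 further: in vitro Pim-1 reaction run 2 h at 30 °C, then leftover ATP measured by luciferase luminescence, where signal falls as kinase activity rises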
Format: biochemical
conditions used: Table X; Kinase-Glo; read-out: IC50 on Pim1
pIC50: −log10 of the molar value.
// reported pIC50 per item

Known pIC50 results, listed for orientation:
In [3]: df
Out[3]:
                            compound_smiles  reported_measurement
0  OCCN1CCC(CNc2ccc3ncc(-c4cccc(OC(F)(F)F)c4)n3n2)CC1          7.00 to 8.00
1  C[C@]1(O)CC[C@H](Nc2ccn3ncc(-c4cccc(C(F)(F)F)c4)c3n2)CC1          7.00 to 8.00

Per the record, "FC(F)(F)Oc1cccc(-c2cnn3ccc(NC4CCOCC4)nc23)c1" has pIC50 of 6.00 to 7.00

GET /value?item= "O=S1(=O)CCC(CNc2ccn3ncc(-c4cccc(Cl)c4)c3n2)CC1" &field=pIC50 returns 6.00 to 7.00

What the record says about "O=S1(=O)CCN(c2ccc3ncc(-c4cccc(OC(F)(F)F)c4)n3n2)CC1" : pIC50 is 5.30 to 6.00

The molecule listed as "COc1ccc(CNc2ccc3ncc(-c4cccc(OC(F)(F)F)c4)n3n2)cc1" has a reported pIC50 of 6.00 to 7.00

For reference, reported pIC50 for "CC(C)O[C@H]1CC[C@H](Nc2ccc3ncc(-c4cccc(OC(F)(F)F)c4)n3n2)CC1" stands at 6.00 to 7.00
